biological target: Beta-galactosidase (Escherichia coli (strain K12)); experiment: beta-Galactosidase Assay; conditions: 30 °C
Sequence (P00722 whole entry): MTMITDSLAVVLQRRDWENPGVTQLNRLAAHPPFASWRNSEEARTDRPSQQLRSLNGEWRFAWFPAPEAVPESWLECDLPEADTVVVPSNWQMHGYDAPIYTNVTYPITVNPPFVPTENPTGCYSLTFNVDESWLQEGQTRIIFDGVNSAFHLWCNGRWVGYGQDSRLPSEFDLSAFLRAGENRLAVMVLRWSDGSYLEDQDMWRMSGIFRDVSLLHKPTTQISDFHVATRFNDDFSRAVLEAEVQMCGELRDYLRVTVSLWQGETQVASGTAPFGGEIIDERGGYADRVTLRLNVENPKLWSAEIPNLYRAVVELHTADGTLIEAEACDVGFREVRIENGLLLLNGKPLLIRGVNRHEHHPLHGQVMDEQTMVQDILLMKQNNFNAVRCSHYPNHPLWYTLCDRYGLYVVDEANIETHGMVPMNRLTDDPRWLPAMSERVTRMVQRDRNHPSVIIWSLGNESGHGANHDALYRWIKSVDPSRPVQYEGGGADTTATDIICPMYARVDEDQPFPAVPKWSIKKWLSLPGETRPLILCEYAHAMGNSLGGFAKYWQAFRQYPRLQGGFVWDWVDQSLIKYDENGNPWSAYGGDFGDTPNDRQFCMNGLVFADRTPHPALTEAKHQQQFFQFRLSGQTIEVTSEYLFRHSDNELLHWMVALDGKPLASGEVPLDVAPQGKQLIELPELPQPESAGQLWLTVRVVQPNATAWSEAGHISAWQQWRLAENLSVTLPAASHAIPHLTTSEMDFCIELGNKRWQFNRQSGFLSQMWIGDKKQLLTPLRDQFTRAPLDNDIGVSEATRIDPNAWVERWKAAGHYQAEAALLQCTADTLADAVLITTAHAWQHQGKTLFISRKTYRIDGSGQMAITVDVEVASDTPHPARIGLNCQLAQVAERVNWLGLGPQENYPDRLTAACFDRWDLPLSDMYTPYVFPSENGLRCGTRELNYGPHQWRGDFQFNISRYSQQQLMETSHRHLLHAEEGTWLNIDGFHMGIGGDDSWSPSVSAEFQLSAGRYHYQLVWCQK
pKi: −log10 of the molar value.
reported-metric: pKi

O=C(NCCOCCOCCOCCNC(=O)c1ccc(C(=O)OCCS[C@@H]2O[C@H](CO)[C@H](O)[C@H](O)[C@H]2O)c(C(c2ccccc2)c2ccccc2)c1)c1ccc(C(=O)c2ccccc2)cc1
5.52
O=C(NCCOCCOCCOCCNC(=O)c1ccc(C(=O)OCCOCCS[C@@H]2O[C@H](CO)[C@H](O)[C@H](O)[C@H]2O)c(C(c2ccccc2)c2ccccc2)c1)c1ccc(C(=O)c2ccccc2)cc1
5.41
CC(C)S[C@@H]1O[C@H](CO)[C@H](O)[C@H](O)[C@H]1O
4.12
O=C(NCCOCCOCCOCCNC(=O)c1ccc(C(=O)OCCOCCOCCOCCS[C@@H]2O[C@H](CO)[C@H](O)[C@H](O)[C@H]2O)c(C(c2ccccc2)c2ccccc2)c1)c1ccc(C(=O)c2ccccc2)cc1
5.23
